Test: PAMPA (parallel artificial membrane permeability assay)
Assay type: in vitro ADME
Settings: PAMPA; membrane permeation rate (Pe); 50 mM MOPSO buffer pH 6.5 with 5.0% glycocholic acid, 37° C., 18 hours; read-out: iPAMPA Pe
Starred links: 1 amine or outer side, 2 acyl side, 3 side chain; linkers in the order of their positions; H or OH if unused. Positions of bridges follow the written chain, without caps; N, C: chain ends. Non-standard residues stand in square brackets, D forms with d. Residues, ends and D or L forms follow the SMILES beside them. *: point of attachment. hhPhe = N[C@@H](CCCc1ccccc1)C(=O)O; NMeF = CN[C@@H](Cc1ccccc1)C(=O)O; NMeβAla = CN(CCC(=O)[*:2])[*:1]; NMeL = CN[C@@H](CC(C)C)C(=O)O; NMeV = CN[C@H](C(=O)O)C(C)C; NMeA = CN[C@@H](C)C(=O)O; Piperidide = C1CCN(*)CC1; tBu = CC(C)(C)*
# maps each entry to its Papp at 18 hours, 50 µM
Respond numerically; units are ×10⁻⁶ cm/s and should not be typed.

CC(C)C[C@@H]1NC(=O)[C@@H]2CCCN2C(=O)[C@H](Cc2ccccc2)N(C)C(=O)[C@H](C)N(C)C(=O)[C@H]([C@@H](C)O)NC(=O)[C@@H](C(C)C)NC(=O)C[C@@H](C(=O)N2CCCCC2)NC(=O)[C@H](CC(C)C)N(C)C(=O)[C@H](C)N(C)C(=O)[C@H](CCCc2ccccc2)NC(=O)[C@H](C(C)C)N(C)C1=O [DP-733] ([dV]T[NMeA][NMeF]PL[NMeV][hhPhe][NMeA][NMeL]D-Piperidide; lactam N-11)    26
CC(C)C[C@@H]1NC(=O)[C@H]([C@@H](C)O)NC(=O)[C@H](CC(C)C)N(C)C(=O)[C@H](C)N(C)C(=O)[C@H](Cc2ccccc2)N(C)C(=O)[C@H](Cc2ccccc2)NC(=O)[C@H](CC(C)C)N(C)C(=O)CCN(C)C(=O)C[C@@H](C(=O)N(C)[C@@H](Cc2ccccc2)C(=O)N[C@@H](C)C(=O)N2CCCCC2)NC(=O)[C@H](CC(C)C)N(C)C1=O [DP-351] ([NMeβAla][NMeL]F[NMeF][NMeA][NMeL]TL[NMeL]D[NMeF]A-Piperidide; lactam N-10)    63

Pending compound:
// query Given CC(C)C[C@@H]1NC(=O)[C@H](Cc2ccccc2)N(C)C(=O)CNC(=O)[C@H](Cc2ccccc2)NC(=O)[C@H]([C@@H](C)O)NC(=O)[C@H](CC(C)C)N(C)C(=O)CCN(C)C(=O)C[C@@H](C(=O)N2CCCCC2)NC(=O)[C@H](COC(C)(C)C)NC(=O)[C@H](CC(C)C)N(C)C1=O [DP-335] ([NMeβAla][NMeL]TFG[NMeF]L[NMeL]S(tBu)D-Piperidide; lactam N-10) , state its recorded Papp at 18 hours, 50 µM.
// result 22
